Tested on: HepG2-TP53BP1-CLTA
Experiment: lowest phenotypically active concentration; higher = less potent
Conditions: treatment time: 24 h
Endpoint: lowest phenotypically active concentration (µM)
Please reply with the bare figure in µM and do not write the unit itself.

Previously resolved entries follow.
>  <Compound>
O=C(Nc1ccccc1)N1CCC(Cc2cnc3ccccc3c2)CC1

>  <Reported>
9

$$$$
>  <Compound>
c1ccc2c(c1)Cc1c(Nc3ccc4c(c3)OCCO4)n[nH]c1-2

>  <Reported>
3

$$$$
>  <Compound>
O=C1NC(=O)C(c2ccccc2[N+](=O)[O-])=C1Nc1ccc(O)c(Cl)c1

>  <Reported>
3

$$$$
>  <Compound>
CC[C@@H](N)CNc1ccnc(-c2cc(-c3cnn(C)c3)ccc2O)n1

>  <Reported>
1

$$$$
>  <Compound>
Cc1ccc(-n2nc(C(C)(C)C)cc2NC(=O)Nc2ccc(OCCN3CCOCC3)c3ccccc23)cc1

>  <Reported>
3

$$$$
>  <Compound>
CC(C)(C)n1nc(-c2ccc(Cl)cc2)c2c(N)ncnc21

>  <Reported>
3

$$$$
>  <Compound>
Nc1cccc(-c2cc3c(Oc4cccc(O)c4)ncnc3[nH]2)c1

>  <Reported>
3

$$$$
>  <Compound>
O=S(=O)(c1cccc2cnccc12)N1CCNCC1

>  <Reported>
9

$$$$
>  <Compound>
O=c1cc(N2CCOCC2)oc2c(-c3ccccc3)cccc12

>  <Reported>
9

$$$$
>  <Compound>
CC(C)N(CCCNC(=O)Nc1ccc(C(C)(C)C)cc1)C[C@H]1O[C@@H](n2ccc3c(N)ncnc32)[C@H](O)[C@@H]1O

>  <Reported>
1

$$$$

Summary line: Fc1ccccc1Nc1nc2nonc2nc1Nc1ccccc1F , HepG2-TP53BP1-CLTA, reported lowest phenotypically active concentration = 9

Summary line: Nc1ncnc(Nc2ccc(OCc3ccccc3)c(Cl)c2)c1/C=N/OCCN1CCOCC1 , HepG2-TP53BP1-CLTA, reported lowest phenotypically active concentration = 9

Summary line: CC(=O)Nc1ccc(NC(=S)NC(=O)c2ccc(C(C)(C)C)cc2)cc1 [Tenovin-1] , HepG2-TP53BP1-CLTA, reported lowest phenotypically active concentration = 9

Summary line: N=C(N)c1ccc(OCCCCCOc2ccc(C(=N)N)cc2)cc1 [pentamidine] , HepG2-TP53BP1-CLTA, reported lowest phenotypically active concentration = 9

Summary line: CNCCCC12CCC(c3ccccc31)c1ccccc12 [maprotiline] , HepG2-TP53BP1-CLTA, reported lowest phenotypically active concentration = 9

Summary line: C[C@H]1Oc2cc(cnc2N)-c2c(nn(C)c2C#N)CN(C)C(=O)c2ccc(F)cc21 , HepG2-TP53BP1-CLTA, reported lowest phenotypically active concentration = 3

Summary line: COc1ccc2c(NC(=O)Nc3cccc(C(F)(F)F)n3)ccnc2c1 , HepG2-TP53BP1-CLTA, reported lowest phenotypically active concentration = 9

---

System: WPMY1-TP53BP1-CLTA
Assay: phenotypically active (imaging signature differs from DMSO and reproducible) at any of 0.3-9 uM (binary (1 = active, 0 = inactive)); higher = active
Settings: treatment time: 24 h
Endpoint: phenotypically active

Previously resolved entries follow.
>  <Compound>
Oc1ccc(-c2nc(-c3ccc(F)cc3)c(-c3ccncc3)[nH]2)cc1

>  <phenotypically active>
1 (active)

$$$$
>  <Compound>
CC(=O)Nc1ccc(NC(=S)NC(=O)c2ccc(C(C)(C)C)cc2)cc1

>  <phenotypically active>
1 (active)

$$$$
>  <Compound>
Nc1ccn([C@@H]2O[C@H](CO)[C@@H](O)C2(F)F)c(=O)n1

>  <phenotypically active>
1 (active)

$$$$

# ---- query compound ----
Recorded result, O=S(=O)(c1cccc2cnccc12)N1CCNCC1 , phenotypically active: 1 (active)

// provenance: the supplement of paper PMC7411054
